- EXPERIMENT NOTES: NS1 protein of Zika virus - qHTS assay to identify small molecule inhibitors in human HEK 293 cells (AID 1347053); also: nearly all actives have a fitted effect of over 55% in size; also: potency is read from the fitted curve at half-maximal effect
- CONDITIONS: HEK293 ZIKV MR766 infection, NS1 TR-FRET, 24 h; series mostly up to 46.1 µM
- Text: National Center for Advancing Translational Sciences [NCATS] Johns Hopkins University School of Medicine The non-structural 1 (NS1) protein of zika virus is known to associate with the viral replication complex. This cell-based TR-FRET ZIKV NS-1 assay measures the increased NS-1 protein in human HEK 293 cells after a 24-hour Zika virus infection by a TR-FRET assay readout. […]
Inconclusive results are not listed. The source made the active and inactive calls. Calls follow the shape of the dose curve; as a rule, active = well fitted inhibition curve with a large enough effect; inconclusive = small, poorly fitted or top-dose-only effect; inactive = no such curve, though single readings can be large or run the other way.
QUANTITY NAME: Potency

CCC1=C[C@@H]2CN(C1)Cc1c([nH]c3ccccc13)[C@@](C(=O)OC)(c1cc3c(cc1OC)N(C)[C@@H]1[C@@](O)(C(=O)OC)[C@H](OC(C)=O)[C@]4(CC)C=CCN5CC[C@]31[C@@H]54)C2 = 4180 nM (active)
COc1ccc(C=Cc2cc(OC)c(OC)c(OC)c2)cc1O = inactive
CC(O)C1C(=O)N2C(C(=O)O)=C(SC3CNC(C(=O)N(C)C)C3)C(C)C12 (stereo not drawn) = inactive
O=C(Nc1ncc(-c2cc(C(F)F)nn2-c2c(Cl)cccc2Cl)s1)C1CC1 = 1050 nM (active)
Nc1nccc(Oc2ccc(NC(=O)c3c[nH]cc(-c4ccc(F)cc4)c3=O)cc2F)c1Cl = inactive
COc1ccc(CC2SC(=O)NC2=O)cc1C(=O)NCc1ccc(C(F)(F)F)cc1 (stereo not drawn) = inactive
CC(=O)SC[C@@H](C)C(=O)N1CCC[C@H]1C(=O)N[C@@H](Cc1ccccc1)C(=O)O = inactive
COc1c(N2C[C@@H]3CCCN[C@H]3C2)c(F)cc2c(=O)c(C(=O)O)cn(C3CC3)c12 = inactive
CC1COC2(CCN(c3nc(=O)c4cc(C(F)(F)F)cc([N+](=O)[O-])c4s3)CC2)O1 (stereo not drawn) = inactive
Nc1nc(-c2nn(Cc3ccccc3F)c3ncccc23)nc(N)c1N1CCOCC1 = inactive

Task item: If you can, please state the reported Potency value of C[C@]12CC[C@H](O)CC1=CCC1C2CC[C@]2(C)C(n3cnc4ccccc43)=CCC12 (stereo partly drawn) .
Reply: inactive

Task item: Need Potency of `CCc1cc2c(cc1N1CCC(N3CCOCC3)CC1)C(C)(C)c1[nH]c3cc(C#N)ccc3c1C2=O` , thanks.
Reply: inactive

Task item: For the compound shown here, `Cn1cc(-c2[nH]c3cc(NC(=O)[C@H](N)C4CCCCC4)cc4c3c2C=NNC4=O)cn1` , give the reported Potency.
Reply: 332 nM (active)

Task item: Form field: reported Potency of `CCOc1cc2ncc(C#N)c(Nc3ccc(F)c(Cl)c3)c2cc1NC(=O)C=CCN(C)C`
Reply: inactive

Task item: For the compound `Cc1coc2c1C(=O)C(=O)c1c-2ccc2c1CCCC2(C)C` , what Potency is on record?
Reply: inactive

* * *

- EXPERIMENT NOTES: Quantitative High-Throughput drug screen in 47 multiple myeloma cell lines against the NCATS MIPE library collection: MM1R_ATCC cell viability assay (AID 1918981); also: nearly all actives have a fitted effect of over 35% in size; also: potency is read from the fitted curve at half-maximal effect
- CONDITIONS: MM1R multiple myeloma cells, CellTiter-Glo viability, 48 h; series mostly up to 45.8 µM
Results filed as inconclusive are left out. Active and inactive are the calls of the source. Calls follow the shape of the dose curve; as a rule, active = well fitted cell-killing curve with a large enough effect; inconclusive = small, poorly fitted or top-dose-only effect, or effect the other way; inactive = no such curve, though single readings can be large or run the other way.
QUANTITY NAME: Potency

Some compounds with recorded Potency:
CC(C)=CCCC(C)=CCCC(C)=CCSc1ccccc1C(=O)O = 3.32 µM (active)
C[C@@]12O[C@@H](C[C@]1(O)CO)n1c3ccccc3c3c4c(c5c6ccccc6n2c5c31)CNC4=O = 0.833 µM (active)
O=C(Nc1nc2cccc(-c3ccc(CN4CCS(=O)(=O)CC4)cc3)n2n1)C1CC1 = 14.8 µM (active)
Cc1[nH]nc2ccc(-c3cncc(OC[C@@H](N)Cc4ccccc4)c3)cc12 = 1.32 µM (active)
CC1(O)CC(c2nc(-c3ccc4ccc(-c5ccccc5)nc4c3)c3c(N)nccn23)C1 (stereo unspecified) = 0.187 µM (active)

Task item: Reported Potency, compound `CN(C)CC=CC(=O)Nc1cc2c(Nc3ccc(F)c(Cl)c3)ncnc2cc1O[C@H]1CCOC1` : ____
Reply: 13.2 µM (active)

Task item: What does the data say about its Potency? Entry: `CC1(C)CCC(c2ccc(Cl)cc2)=C(CN2CCN(c3ccc(C(=O)NS(=O)(=O)c4ccc(N[C@H](CCN5CCOCC5)CSc5ccccc5)c(S(=O)(=O)C(F)(F)F)c4)cc3)CC2)C1`
Reply: 0.187 µM (active)

Task item: Which Potency is listed for `Clc1cccc(-c2nnnn2Cc2cccnc2)c1Cl` ?
Reply: inactive

Task item: // returns reported Potency for input `C=CC(=O)Nc1cc2c(Nc3ccc(F)c(Cl)c3)ncnc2cc1OCCCN1CCOCC1`
Reply: 8.33 µM (active)

Task item: # input compound: `Cc1ccc2nc(NC(=O)CSc3nc4c(c(=O)n3-c3ccccc3)SCC4)sc2c1` ; wanted: its Potency
Reply: 16.6 µM (active)
